These data points were gathered from PubChem BioAssay.

Test: small-molecule binders of probe aNOTCH3, primary screen, biochemical, small-molecule microarray, 635/667 nm fluorescence (AID 1120);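 further: probe is a biotin-tagged antibody raised against NOTCH3 rather than NOTCH3 protein; score merges spot fluorescence near 667 nm with spot signal to noise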
Conditions: higher = more signal
The entries below are paired with their reported composite z-score.

Worked cases, composite z-score given:
Cc1ccc(S[C@]2(C(=O)NC(C)C)CC(=O)N(Cc3ccccc3Cl)[C@@H]2c2ccc(CO)cc2)cc1 :: -0.294
COCCOC(=O)N1C(=O)[C@@]2(c3cc(C#CC4(O)CCCCCC4)ccc31)[C@H](C(=O)N1CCN(c3ncccn3)CC1)[C@H]1C(=O)O[C@H](c3ccccc3)[C@H](c3ccccc3)N1[C@@H]2c1ccccc1OCCO :: 0.22

Hello, please tell me recorded composite z-score for this one: `O=C1C[C@@](C(=O)NCC(F)(F)F)(c2ccc([N+](=O)[O-])cc2)[C@@H](c2ccc(CO)cc2)N1CC12CC3CC(CC(C3)C1)C2` 0.6
